Exercise: state measured pIC50 for each of the binders provided.
biological target: T1, TCE-33 (anti-CD3 scFv F240A; anti-TROP2 wt); test: competition ELISA, TCE on captured CD3
T1 construct: scFv on the Fab heavy chain; also called TCE-33 (F240A)
Where no end group is shown, it is not given here.
Numbers only, as −log10 of the molar value.

VYCGPEFDESVGCA (cysteine pairing not given here; also: biotinylated, site not given here, mask peptide for the CD3 scFv) [Peptide-73] = 5.52
AYCGPEFDESVGCM (cysteine pairing not given here; also: biotinylated, site not given here, mask peptide for the CD3 scFv) [Peptide-72] = 5.57
VDCGPDGDESILCY (cysteine pairing not given here; also: biotinylated, site not given here, mask peptide for the CD3 scFv) [Peptide-71] = 5.32

Provide pIC50 values for the following items, in order.
1. GSQCLGPEWEVCPY (cysteine pairing not given here; also: biotinylated, site not given here, mask peptide for the CD3 scFv) [Peptide-66]
2. QGCGTIADPEPHCW (cysteine pairing not given here; also: biotinylated, site not given here, mask peptide for the CD3 scFv) [Peptide-65]

[5.43, 6.21]
